- tgt: Alpha2A (Homo sapiens, UniProt P08913)
- Sequence (P08913 whole entry): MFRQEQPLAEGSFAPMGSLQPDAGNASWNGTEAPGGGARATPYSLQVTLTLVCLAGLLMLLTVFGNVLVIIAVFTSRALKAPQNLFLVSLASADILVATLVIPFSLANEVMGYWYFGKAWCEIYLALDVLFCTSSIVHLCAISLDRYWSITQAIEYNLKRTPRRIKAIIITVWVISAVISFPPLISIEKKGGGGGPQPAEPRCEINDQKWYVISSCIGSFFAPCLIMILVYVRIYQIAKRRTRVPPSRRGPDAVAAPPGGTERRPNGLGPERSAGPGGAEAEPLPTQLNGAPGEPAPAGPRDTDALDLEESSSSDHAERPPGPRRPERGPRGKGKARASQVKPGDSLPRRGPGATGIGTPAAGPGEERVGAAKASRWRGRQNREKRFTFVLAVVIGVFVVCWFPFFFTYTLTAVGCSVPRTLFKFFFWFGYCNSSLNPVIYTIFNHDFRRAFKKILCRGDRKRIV
- experiment_summary: PDSP radioligand binding assay
- condition_set: Table 5
- Protocol: The compound was initially screened in radioligand binding assays at a constant concentration (10 μM) to identify possible activity of the compound. Results showing significant activity in the initial screen were selected for Ki determinations. As a representative of the Chemotype II series, the MLPCN probe molecule 2{8} was subjected to a binding assay panel of 44 GPCR and other molecular targets by the Pyschoactive Drug Screening Program (PDSP) (Table 10). […]
pKi: −log10 of the molar value.
parameter_measured: pKi

Input: Specify reported pKi for the compound shown: COc1ccc(N2CCN(CCCNC(=O)Cn3c(=O)c4cccn4c4c(C)ccnc43)CC2)cc1 [Compound 1{3}]
Output: < 5.00

====

Consider the following compounds; for each one, report its IC50.
- tgt: UniProtKB P41145
- experiment_summary: High content imaging β-arrestin translocation assay, KOR antagonist (KOR HCS)
- Type: cell-based
- condition_set: antagonist; average; read-out: Potency, Target KOR HCS
One number for each entry, in nM.

| compound | units_of_measure | IC50 |
| --- | --- | --- |
| Cc1ccnc2c1n1cccc1c(=O)n2CC(=O)NCCCN1CCN(c2ccc(Cl)cc2)CC1 [Compound 1{6}] | nM | 70 |
| COc1ccc(N2CCN(CCCNC(=O)Cn3c(=O)c4cccn4c4c(C)ccnc43)CC2)c(OC)c1 [1{4}] | nM | 4 |
| Cc1ccc(N2CCN(CCCNC(=O)Cn3c(=O)c4cccn4c4c(C)ccnc43)CC2)cc1 [1{7}] | nM | 2280 |
| O=C(Cn1c(=O)c2cccn2c2cccnc21)NCCCN1CCN(c2ccc3c(c2)OCO3)CC1 [Compound 1{10}] | nM | 780 |
| COc1ccc(N2CCN(CCCNC(=O)Cn3c(=O)c4cccn4c4ccccc43)CC2)cc1 [Compound 1{1}] | nM | 1310 |

Below are 2 compounds. Give each one its IC50.
1. Cc1ccnc2c1n1cccc1c(=O)n2CC(=O)NCCCN1CCN(c2ccc3c(c2)OCO3)CC1 [1{5}]
2. O=C(Cn1c(=O)c2cccn2c2cc(Br)cnc21)NCCCN1CCN(c2ccc3c(c2)OCO3)CC1 [Compound 1{17}]

Output:
[45, 150]

====

- tgt: 5ht1b (Homo sapiens)
- Sequence (P28222 whole entry, species assumed): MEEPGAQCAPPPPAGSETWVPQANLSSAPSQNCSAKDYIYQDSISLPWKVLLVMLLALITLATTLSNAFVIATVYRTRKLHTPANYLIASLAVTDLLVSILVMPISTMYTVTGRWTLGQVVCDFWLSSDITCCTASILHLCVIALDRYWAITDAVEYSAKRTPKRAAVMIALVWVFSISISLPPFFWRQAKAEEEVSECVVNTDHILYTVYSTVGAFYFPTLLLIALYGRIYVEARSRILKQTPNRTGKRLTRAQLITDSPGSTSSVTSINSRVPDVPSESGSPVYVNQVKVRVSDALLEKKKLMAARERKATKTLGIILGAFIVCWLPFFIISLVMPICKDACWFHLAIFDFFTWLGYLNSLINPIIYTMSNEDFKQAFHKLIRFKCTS
- experiment_summary: PDSP radioligand binding assay
- condition_set: Table 5
- Procedure: The compound was initially screened in radioligand binding assays at a constant concentration (10 μM) to identify possible activity of the compound. Results showing significant activity in the initial screen were selected for Ki determinations. As a representative of the Chemotype II series, the MLPCN probe molecule 2{8} was subjected to a binding assay panel of 44 GPCR and other molecular targets by the Pyschoactive Drug Screening Program (PDSP) (Table 10). […]
pKi: −log10 of the molar value.
parameter_measured: pKi

Input: Indicate the recorded pKi value for this compound: COc1ccc(N2CCN(CCCNC(=O)Cn3c(=O)c4cccn4c4c(C)ccnc43)CC2)cc1 [Compound 1{3}]
Output: < 5.00

====

- tgt: Sigma1
- experiment_summary: PDSP radioligand binding assay
- condition_set: Table 10
pKi: −log10 of the molar value.
parameter_measured: pKi

Input: Tell us which pKi value is on record for Clc1ccc(CSc2nnc(-c3ccccn3)n2Cc2ccco2)cc1Cl
Output: < 5.00

====

- tgt: KOR (Homo sapiens)
- experiment_summary: DISCOVERX β-arrestin […] assay, agonist mode (KOR DRx)
- Type: cell-based
- condition_set: at highest concentration tested, compared to dynorphin A (Emax=100%)
Would you kindly list Emax (%) for each of these molecules?

// for each molecule below, give its Emax (%)
1. COc1ccc(CSc2nnc(-c3ccccn3)n2Cc2ccco2)cc1
2. Clc1ccccc1CSc1nnc(-c2ccccn2)n1Cc1cccs1
3. Cc1ccc(CSc2nnc(-c3ccccn3)n2Cc2ccco2)cc1
4. Cc1cc(C)c(CSc2nnc(-c3ccccn3)n2Cc2ccco2)c(C)c1

Output:
~150%
~100%
~150%
~100%

====

- tgt: H2 (Homo sapiens, UniProt P25021)
- Sequence (P25021 whole entry): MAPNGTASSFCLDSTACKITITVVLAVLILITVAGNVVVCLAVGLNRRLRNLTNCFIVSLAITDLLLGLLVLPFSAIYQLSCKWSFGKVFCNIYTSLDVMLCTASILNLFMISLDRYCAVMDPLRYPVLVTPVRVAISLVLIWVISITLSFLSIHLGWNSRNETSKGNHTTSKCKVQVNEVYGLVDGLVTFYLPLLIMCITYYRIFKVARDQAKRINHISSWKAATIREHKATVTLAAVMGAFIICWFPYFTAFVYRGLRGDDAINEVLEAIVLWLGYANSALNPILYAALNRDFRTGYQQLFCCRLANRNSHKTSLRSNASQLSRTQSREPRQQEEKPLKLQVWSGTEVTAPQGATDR
- experiment_summary: PDSP radioligand binding assay
- condition_set: Table 5
parameter_measured: pKi
One number for each entry, as −log10 of the molar value.

Input: Give H2 (Homo sapiens, UniProt P25021) pKi for the following compound: COc1ccc(N2CCN(CCCNC(=O)Cn3c(=O)c4cccn4c4c(C)ccnc43)CC2)cc1
Output: 5.46

====

- tgt: 5ht1a (Homo sapiens, UniProt P08908)
- Sequence (P08908 whole entry, species assumed): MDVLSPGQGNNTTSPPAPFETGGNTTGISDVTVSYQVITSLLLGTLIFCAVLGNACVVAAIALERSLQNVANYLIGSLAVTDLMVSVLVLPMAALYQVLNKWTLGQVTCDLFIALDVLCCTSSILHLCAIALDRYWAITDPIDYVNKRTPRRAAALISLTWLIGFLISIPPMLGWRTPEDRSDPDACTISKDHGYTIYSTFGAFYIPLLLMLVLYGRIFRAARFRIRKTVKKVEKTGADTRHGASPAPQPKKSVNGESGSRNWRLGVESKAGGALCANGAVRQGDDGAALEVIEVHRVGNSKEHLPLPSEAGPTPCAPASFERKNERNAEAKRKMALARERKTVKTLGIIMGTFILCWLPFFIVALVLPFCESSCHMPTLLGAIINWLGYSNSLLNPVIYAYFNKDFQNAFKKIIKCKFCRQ
- experiment_summary: PDSP radioligand binding assay
- condition_set: Table 10
parameter_measured: Ki

Input: Please indicate recorded Ki of Clc1ccc(CSc2nnc(-c3ccccn3)n2Cc2ccco2)cc1Cl measured with 5ht1a (Homo sapiens, UniProt P08908).
Output: > 10 µM

====

- tgt: Beta1 (Homo sapiens, UniProt P08588)
- Sequence (P08588 whole entry): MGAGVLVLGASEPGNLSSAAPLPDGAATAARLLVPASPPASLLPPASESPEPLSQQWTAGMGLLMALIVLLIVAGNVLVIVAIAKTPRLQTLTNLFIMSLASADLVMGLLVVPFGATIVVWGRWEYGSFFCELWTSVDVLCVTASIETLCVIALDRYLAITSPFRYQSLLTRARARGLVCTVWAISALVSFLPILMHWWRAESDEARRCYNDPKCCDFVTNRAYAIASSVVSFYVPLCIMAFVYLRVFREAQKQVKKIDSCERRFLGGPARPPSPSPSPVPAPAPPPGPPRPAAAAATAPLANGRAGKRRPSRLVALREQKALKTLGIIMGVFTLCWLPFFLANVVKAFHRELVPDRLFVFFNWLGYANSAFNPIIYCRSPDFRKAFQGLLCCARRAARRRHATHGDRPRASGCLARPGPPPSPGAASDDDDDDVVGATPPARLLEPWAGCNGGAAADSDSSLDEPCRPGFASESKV
- experiment_summary: PDSP radioligand binding assay
- condition_set: Table 5
pKi: −log10 of the molar value.
parameter_measured: pKi

Input: Specify pKi for COc1ccc(N2CCN(CCCNC(=O)Cn3c(=O)c4cccn4c4c(C)ccnc43)CC2)cc1 and stop.
Output: < 5.00

====

- tgt: KOR (Homo sapiens)
- experiment_summary: DISCOVERX β-arrestin […] assay, agonist mode (KOR DRx)
- Type: cell-based
- condition_set: agonist; n = 3; read-out: Average Potency KOR DRx
parameter_measured: pEC50
One number for each entry, as −log10 of the molar value.

Answered cases to consult:
| molecule | pEC50 |
| --- | --- |
| Fc1ccc(CSc2nnc(-c3ccccn3)n2Cc2cccs2)c(F)c1F [Compound 2{44}] | 5.52 |
| COc1ccc(CSc2nnc(-c3ccccn3)n2Cc2ccco2)cc1 [Compound 2{20}] | 5.11 |
| FC(F)(F)c1cc(CSc2nnc(-c3ccccn3)n2Cc2ccco2)ccc1Cl [Compound 2{10}] | 6.30 |
| CC(C)(C)c1ccc(CSc2nnc(-c3ccccn3)n2Cc2ccco2)cc1 [2{6}] | 5.70 |
| O=[N+]([O-])c1ccc(CSc2nnc(-c3ccccn3)n2Cc2cccs2)cc1 [Compound 2{26}] | 5.91 |
| Fc1ccc(CSc2nnc(-c3ccccn3)n2Cc2ccco2)c(C(F)(F)F)c1 [Compound 2{45}] | 5.08 |
| COC(=O)c1ccc(CSc2nnc(-c3ccccn3)n2Cc2cccs2)cc1 [Compound 2{30}] | 5.21 |

Now turn to the next molecule.
Input: Specify pEC50 for CC(C)c1ccc(CSc2nnc(-c3ccccn3)n2Cc2cccs2)cc1 [Compound 2{34}] and stop.
Output: 5.44

====

- tgt: 5ht2a (Homo sapiens, UniProt P28223)
- Sequence (P28223 whole entry, species assumed): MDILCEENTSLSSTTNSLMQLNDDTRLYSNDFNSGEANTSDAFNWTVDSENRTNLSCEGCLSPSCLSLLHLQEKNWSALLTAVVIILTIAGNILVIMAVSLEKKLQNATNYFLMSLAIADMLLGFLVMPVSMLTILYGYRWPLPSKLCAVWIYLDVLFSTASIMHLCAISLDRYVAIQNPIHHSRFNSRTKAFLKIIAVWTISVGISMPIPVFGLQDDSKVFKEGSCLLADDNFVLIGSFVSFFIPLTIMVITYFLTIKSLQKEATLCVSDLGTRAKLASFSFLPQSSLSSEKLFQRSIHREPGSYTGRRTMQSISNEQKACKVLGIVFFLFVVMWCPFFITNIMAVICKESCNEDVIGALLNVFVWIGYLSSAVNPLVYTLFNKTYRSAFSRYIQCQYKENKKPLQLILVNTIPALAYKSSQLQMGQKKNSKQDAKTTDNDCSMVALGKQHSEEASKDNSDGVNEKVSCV
- experiment_summary: PDSP radioligand binding assay
- condition_set: Table 10
parameter_measured: Ki (µM)
Numbers only, in µM.

Input: Assign Ki to the following record: Clc1ccc(CSc2nnc(-c3ccccn3)n2Cc2ccco2)cc1Cl
Output: 3.79

====

So I've got a bunch of compounds here, and I need their pIC50 values.
- tgt: MOR (Homo sapiens, UniProt P35372)
- Sequence (P35372 whole entry): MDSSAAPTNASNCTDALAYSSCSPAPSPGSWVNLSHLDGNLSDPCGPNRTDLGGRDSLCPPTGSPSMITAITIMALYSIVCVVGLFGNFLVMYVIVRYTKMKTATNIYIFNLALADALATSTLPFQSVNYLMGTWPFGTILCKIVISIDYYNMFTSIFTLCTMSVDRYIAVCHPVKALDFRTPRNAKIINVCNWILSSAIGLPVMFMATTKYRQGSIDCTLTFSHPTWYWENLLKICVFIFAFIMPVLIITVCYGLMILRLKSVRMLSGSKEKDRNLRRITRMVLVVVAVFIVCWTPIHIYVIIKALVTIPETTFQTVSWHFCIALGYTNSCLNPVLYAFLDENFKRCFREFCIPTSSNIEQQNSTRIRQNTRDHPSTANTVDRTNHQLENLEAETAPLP
- experiment_summary: High content imaging β-arrestin translocation assay, MOR antagonist (MOR HCS)
- Format: cell-based
- condition_set: antagonist; average; read-out: Potency, Antitarget MOR HCS
Give bare numbers, as −log10 of the molar value.

| compound | pIC50 |
| --- | --- |
| Cc1ccnc2c1n1cccc1c(=O)n2CC(=O)NCCCN1CCN(c2ccccc2)CC1 [1{8}] | 4.65 |

Here is the next item to consider.
Input: Specify reported pIC50 for the compound shown: COc1ccc(N2CCN(CCCNC(=O)Cn3c(=O)c4cccn4c4cc(Br)cnc43)CC2)c(OC)c1 [1{16}]
Output: 4.99

====

- tgt: KOR (Homo sapiens, UniProt P41145)
- Sequence (P41145 whole entry): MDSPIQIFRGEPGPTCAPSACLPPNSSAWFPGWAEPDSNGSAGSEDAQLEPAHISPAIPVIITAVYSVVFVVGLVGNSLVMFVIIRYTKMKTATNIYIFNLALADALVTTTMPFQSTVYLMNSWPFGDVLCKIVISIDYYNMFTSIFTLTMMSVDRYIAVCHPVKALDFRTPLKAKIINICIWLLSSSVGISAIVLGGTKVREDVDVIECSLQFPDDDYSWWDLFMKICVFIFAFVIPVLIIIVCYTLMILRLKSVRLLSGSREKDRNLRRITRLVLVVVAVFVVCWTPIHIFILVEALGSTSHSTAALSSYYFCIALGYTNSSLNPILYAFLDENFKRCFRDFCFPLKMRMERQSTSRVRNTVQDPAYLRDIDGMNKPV
- experiment_summary: KOR1 DISCOVERX β-Arrestin […] assay, antagonist mode (KOR DRX)
- Assay type: cell-based
- condition_set: antagonist; average; read-out: Potency, Target KOR DRX
parameter_measured: pIC50
Give bare numbers, as −log10 of the molar value.

Worked cases, pIC50 given:
| compound | tgt | pIC50 |
| --- | --- | --- |
| COc1ccc(N2CCN(CCCNC(=O)Cn3c(=O)c4cccn4c4cc(Br)cnc43)CC2)cc1 | KOR (Homo sapiens, UniProt P41145) | 5.52 |
| COc1ccc(N2CCN(CCCNC(=O)Cn3c(=O)c4cccn4c4ccccc43)CC2)cc1 [Compound 1{1}] | KOR (Homo sapiens, UniProt P41145) | 5.71 |

Dear colleague, could you please provide pIC50 for the compounds listed below?
1. Cc1ccnc2c1n1cccc1c(=O)n2CC(=O)NCCCN1CCN(c2ccc3c(c2)OCO3)CC1
2. O=C(Cn1c(=O)c2cccn2c2cccnc21)NCCCN1CCN(c2ccc(Cl)cc2)CC1

Output:
6.37
5.29

Could you report pIC50 for every entry in the following list?
1. O=C(Cn1c(=O)c2cccn2c2cccnc21)NCCCN1CCC(Cc2ccccc2)CC1
2. O=C(Cn1c(=O)c2cccn2c2cc(Br)cnc21)NCCCN1CCN(c2ccc3c(c2)OCO3)CC1
3. COc1ccc(N2CCN(CCCNC(=O)Cn3c(=O)c4cccn4c4cc(Br)cnc43)CC2)c(OC)c1
4. COc1ccc(N2CCN(CCCNC(=O)Cn3c(=O)c4cccn4c4cccnc43)CC2)c(OC)c1
5. Cc1ccc(N2CCN(CCCNC(=O)Cn3c(=O)c4cccn4c4cccnc43)CC2)cc1
6. O=C(Cn1c(=O)c2cccn2c2cccnc21)NCCCN1CCN(c2ccc3c(c2)OCO3)CC1
7. COc1ccc(N2CCN(CCCNC(=O)Cn3c(=O)c4cccn4c4ccccc43)CC2)cc1 [1{2}]
8. COc1ccc(N2CCN(CCCCNC(=O)Cn3c(=O)c4cccn4c4c(C)ccnc43)CC2)cc1

Output:
1. 5.32
2. 5.51
3. 5.55
4. 5.58
5. 5.43
6. 5.37
7. 5.36
8. 5.90
